# System: Jurkat cells
# assay name: cells
# test settings: read-out: EC50 against Jurkat cells; MTT, incubation 24 h (etoposide, cisplatin, celastrol)
observed property: EC50 (µM)
Give bare numbers, in µM.

Problem: # input molecule: N.N.[Cl][Pt][Cl] [cisplatin] ; wanted: its EC50
Result: 5.8

* * *

# Test system: HeLa-S3 cells
# assay name: cells
# test settings: read-out: EC50 against HeLa-S3 cells; MTT, incubation 24 h (etoposide, cisplatin, celastrol)
observed property: EC50 (µM)
One number for each entry, in µM.

Problem: # input compound: N.N.[Cl][Pt][Cl] [cisplatin] ; wanted: its EC50
Result: 15

* * *

Task for the reader: assign each of the following molecules its reported EC50.
# Test system: IMR90 cells
# assay name: cells
# test settings: Homo sapiens, IMR-90, 24 h, read-out: EC50 against IMR90 cells

Problem: Lab note: need EC50 with IMR90 cells for entry CC1=C(O)C(=O)C=C2C1=CC=C1[C@@]2(C)CC[C@@]2(C)[C@@H]3C[C@](C)(C(=O)O)CC[C@]3(C)CC[C@]12C , please look it up.
Result: > 25 µM

Moving on to another molecule below.
Problem: Lab note: need EC50 with IMR90 cells for entry COc1cc([C@@H]2c3cc4c(cc3[C@@H](O[C@@H]3O[C@@H]5CO[C@@H](C)O[C@H]5[C@H](O)[C@H]3O)[C@H]3COC(=O)[C@H]23)OCO4)cc(OC)c1O [etoposide] , please look it up.
Result: > 25 µM
